Test system: Mtb H37Rv
ASSAY OVERVIEW: Depletion of intracellular ATP (BacTiter Glo), Mtb on cholesterol
Format: cell-based, Mycobacterium tuberculosis
TEST CONTEXT: Mycobacterium tuberculosis, H37RV, 168 h, cholesterol as sole carbon source; 1 week post-compound treatment; read-out: ATP-IC50 (W1) H37Rv, cholesterol
pIC50: −log10 of the molar value.
Could you please report measured pIC50 for the items listed next?

Any idea what its pIC50 is? The molecule is O=C(NCc1ccc2[nH]ccc2c1)c1ccc(Cc2ccncc2)cc1
< 4.30

Any idea what its pIC50 is? The molecule is NNC(=O)c1ccncc1 [Isoniazid, isoniazid, reference compound]
> 7.00

Any idea what its pIC50 is? The molecule is O=C(NCc1ccc2[nH]ccc2c1)c1cccc(Nc2ccncc2)c1
> 5.30

* * *

Could you please report measured CYP125 Δλmax (nm) HS for the items listed next?
ASSAY SYSTEM: CYP125 (Mycobacterium tuberculosis)
Sequence (P9WPP1 whole entry): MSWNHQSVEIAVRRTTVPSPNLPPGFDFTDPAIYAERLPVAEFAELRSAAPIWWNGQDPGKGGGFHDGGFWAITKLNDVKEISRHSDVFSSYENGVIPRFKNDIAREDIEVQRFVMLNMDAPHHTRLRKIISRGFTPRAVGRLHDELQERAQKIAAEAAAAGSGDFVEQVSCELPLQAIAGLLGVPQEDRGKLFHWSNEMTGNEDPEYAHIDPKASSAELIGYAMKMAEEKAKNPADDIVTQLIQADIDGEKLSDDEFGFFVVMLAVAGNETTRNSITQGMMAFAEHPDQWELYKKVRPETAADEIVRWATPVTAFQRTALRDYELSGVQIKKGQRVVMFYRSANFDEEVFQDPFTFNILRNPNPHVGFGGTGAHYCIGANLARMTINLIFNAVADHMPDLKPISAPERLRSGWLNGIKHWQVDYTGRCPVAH
Format: binding
TEST CONTEXT: compound 100 µM, P450 5 µM; high spin population; '-' = no HS maxima present
Answer format: numeric, nm implied, no suffix.

Any idea what its CYP125 Δλmax (nm) HS is? The molecule is c1ccc(Cc2ccncc2)cc1
2

Any idea what its CYP125 Δλmax (nm) HS is? The molecule is O=S(=O)(c1ccccc1)c1ccncc1
0

Any idea what its CYP125 Δλmax (nm) HS is? The molecule is Nc1ccc(Cc2ccncc2)cc1
3

Any idea what its CYP125 Δλmax (nm) HS is? The molecule is c1ccc(CCc2ccncc2)cc1
2

Any idea what its CYP125 Δλmax (nm) HS is? The molecule is COC(=O)c1cccc(Nc2ccncc2)c1
1

Any idea what its CYP125 Δλmax (nm) HS is? The molecule is CN(c1ccccc1)c1ccncc1
1

Any idea what its CYP125 Δλmax (nm) HS is? The molecule is Nc1cccc(Nc2ccncc2)c1
1

Any idea what its CYP125 Δλmax (nm) HS is? The molecule is O=C(c1ccccc1)c1ccncc1
0

Any idea what its CYP125 Δλmax (nm) HS is? The molecule is c1ccc(Oc2ccncc2)cc1
1

Any idea what its CYP125 Δλmax (nm) HS is? The molecule is O=C(O)c1cccc(Nc2ccncc2)c1
0

Any idea what its CYP125 Δλmax (nm) HS is? The molecule is COc1cccc(Cc2ccncc2)c1
1

Any idea what its CYP125 Δλmax (nm) HS is? The molecule is COc1ccc(Cc2ccncc2)cc1
1

Any idea what its CYP125 Δλmax (nm) HS is? The molecule is COC(=O)c1ccc(Nc2ccncc2)cc1 [4d, Methyl 4-(pyridin-4-ylamino)benzoate]
2

Any idea what its CYP125 Δλmax (nm) HS is? The molecule is c1ccc(N(c2ccccc2)c2ccncc2)cc1
2

* * *

Could you please report measured Δλmax (nm) CYP126, fragment screen for the items listed next?
ASSAY SYSTEM: CYP126 (Mycobacterium tuberculosis, UniProt P9WPN9)
Sequence (P9WPN9 whole entry, the tested form may be a part): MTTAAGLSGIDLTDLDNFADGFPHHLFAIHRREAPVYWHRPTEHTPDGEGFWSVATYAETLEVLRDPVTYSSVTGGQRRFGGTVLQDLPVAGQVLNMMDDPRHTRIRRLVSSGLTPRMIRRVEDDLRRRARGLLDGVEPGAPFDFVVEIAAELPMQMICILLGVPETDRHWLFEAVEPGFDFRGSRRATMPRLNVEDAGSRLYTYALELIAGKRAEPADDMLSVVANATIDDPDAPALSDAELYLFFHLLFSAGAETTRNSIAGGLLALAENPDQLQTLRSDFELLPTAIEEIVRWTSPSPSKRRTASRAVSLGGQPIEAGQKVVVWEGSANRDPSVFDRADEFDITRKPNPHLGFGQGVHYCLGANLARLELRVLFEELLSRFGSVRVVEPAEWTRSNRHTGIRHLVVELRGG
TEST CONTEXT: fragment 1 mM, P450 4-6 µM; relative to DMSO (418 nm)
Answer format: numeric, nm implied, no suffix.

Write down the reported Δλmax (nm) CYP126, fragment screen of CCc1nc(C)c[nH]1 , test system: CYP126 (Mycobacterium tuberculosis, UniProt P9WPN9).
0

Write down the reported Δλmax (nm) CYP126, fragment screen of Clc1ncccc1Br , test system: CYP126 (Mycobacterium tuberculosis, UniProt P9WPN9).
0

Write down the reported Δλmax (nm) CYP126, fragment screen of O=C(O)CCc1nc2ccccc2[nH]1 , test system: CYP126 (Mycobacterium tuberculosis, UniProt P9WPN9).
0

Write down the reported Δλmax (nm) CYP126, fragment screen of COC(=O)c1cc2ccccc2cn1 , test system: CYP126 (Mycobacterium tuberculosis, UniProt P9WPN9).
0

Write down the reported Δλmax (nm) CYP126, fragment screen of O=[N+]([O-])c1ccc(Br)c2ccncc12 , test system: CYP126 (Mycobacterium tuberculosis, UniProt P9WPN9).
0

Write down the reported Δλmax (nm) CYP126, fragment screen of Nn1cccc1C(=O)O , test system: CYP126 (Mycobacterium tuberculosis, UniProt P9WPN9).
0

Write down the reported Δλmax (nm) CYP126, fragment screen of Nc1ccc(Br)cn1 , test system: CYP126 (Mycobacterium tuberculosis, UniProt P9WPN9).
0

Write down the reported Δλmax (nm) CYP126, fragment screen of Nc1cc(-c2ccc(Cl)cc2)n[nH]1 , test system: CYP126 (Mycobacterium tuberculosis, UniProt P9WPN9).
1

Write down the reported Δλmax (nm) CYP126, fragment screen of Cc1cc(C)n(-c2ccc(N)cc2)n1 , test system: CYP126 (Mycobacterium tuberculosis, UniProt P9WPN9).
0

Write down the reported Δλmax (nm) CYP126, fragment screen of OB(O)c1ccccc1 , test system: CYP126 (Mycobacterium tuberculosis, UniProt P9WPN9).
0

Write down the reported Δλmax (nm) CYP126, fragment screen of O=C(O)c1cncc(F)c1 , test system: CYP126 (Mycobacterium tuberculosis, UniProt P9WPN9).
0

Write down the reported Δλmax (nm) CYP126, fragment screen of Clc1ccc(Cl)nn1 , test system: CYP126 (Mycobacterium tuberculosis, UniProt P9WPN9).
0

Write down the reported Δλmax (nm) CYP126, fragment screen of Cn1nc(C(=O)O)cc1-c1ccccc1 , test system: CYP126 (Mycobacterium tuberculosis, UniProt P9WPN9).
0

Write down the reported Δλmax (nm) CYP126, fragment screen of CNCc1cccc(-c2ccccc2)c1 , test system: CYP126 (Mycobacterium tuberculosis, UniProt P9WPN9).
1

Write down the reported Δλmax (nm) CYP126, fragment screen of c1ccc2c(c1)CCNC2 , test system: CYP126 (Mycobacterium tuberculosis, UniProt P9WPN9).
0

Write down the reported Δλmax (nm) CYP126, fragment screen of O=C(O)c1cccc(O)n1 , test system: CYP126 (Mycobacterium tuberculosis, UniProt P9WPN9).
0

Write down the reported Δλmax (nm) CYP126, fragment screen of N#Cc1ccncc1 , test system: CYP126 (Mycobacterium tuberculosis, UniProt P9WPN9).
0

Write down the reported Δλmax (nm) CYP126, fragment screen of O=C(O)c1cccc(-c2cccnc2)c1 , test system: CYP126 (Mycobacterium tuberculosis, UniProt P9WPN9).
0
